# credit: the supplement of paper PMC10065799

- measured target: EPHB2 (UniProt P29323)
- Sequence (P29323 whole entry, looked up): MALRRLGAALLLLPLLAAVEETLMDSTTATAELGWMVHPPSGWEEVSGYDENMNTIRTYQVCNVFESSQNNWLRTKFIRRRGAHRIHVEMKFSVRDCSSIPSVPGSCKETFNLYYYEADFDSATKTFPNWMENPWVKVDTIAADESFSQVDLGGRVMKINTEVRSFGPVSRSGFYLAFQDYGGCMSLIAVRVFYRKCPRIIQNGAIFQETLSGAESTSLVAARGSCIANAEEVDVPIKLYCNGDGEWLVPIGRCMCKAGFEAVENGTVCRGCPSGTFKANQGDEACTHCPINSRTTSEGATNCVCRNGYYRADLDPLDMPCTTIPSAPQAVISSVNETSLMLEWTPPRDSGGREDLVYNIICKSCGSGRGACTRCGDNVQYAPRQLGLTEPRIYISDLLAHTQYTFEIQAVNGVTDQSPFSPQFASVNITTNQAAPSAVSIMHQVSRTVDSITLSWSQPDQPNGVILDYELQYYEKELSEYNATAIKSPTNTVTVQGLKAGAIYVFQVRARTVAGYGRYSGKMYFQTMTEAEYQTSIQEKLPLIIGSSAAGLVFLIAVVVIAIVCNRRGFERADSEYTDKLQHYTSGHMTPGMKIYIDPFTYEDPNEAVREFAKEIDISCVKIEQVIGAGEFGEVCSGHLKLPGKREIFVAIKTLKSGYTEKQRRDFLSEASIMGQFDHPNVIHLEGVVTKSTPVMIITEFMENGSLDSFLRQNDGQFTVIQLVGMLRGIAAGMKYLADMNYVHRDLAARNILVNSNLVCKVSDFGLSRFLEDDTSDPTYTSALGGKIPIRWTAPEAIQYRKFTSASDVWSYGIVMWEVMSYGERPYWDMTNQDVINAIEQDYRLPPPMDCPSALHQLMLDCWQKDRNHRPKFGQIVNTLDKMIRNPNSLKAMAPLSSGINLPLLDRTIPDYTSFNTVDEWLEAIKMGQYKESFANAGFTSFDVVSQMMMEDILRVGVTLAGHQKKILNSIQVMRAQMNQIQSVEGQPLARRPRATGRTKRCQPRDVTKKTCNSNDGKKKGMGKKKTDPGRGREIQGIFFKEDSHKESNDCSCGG
- protocol text: phosphorylation enrichment, bacterial display (enrichment ratio); higher = better substrate or ligand; peptides without Tyr show the background
# phosphorylation enrichment per record follows

Examples with their reported phosphorylation enrichment follow.
{"seq string": "ALVDTYCRHNF [HLA-DRB1_Y107_A103L_YF]", "experimental endpoint": "phosphorylation enrichment", "obs value": 0.613}
{"seq string": "VPTSKYRGGGG [HBA1_Y141_L137P]", "experimental endpoint": "phosphorylation enrichment", "obs value": 0.341}
{"seq string": "CEHRGCLYLAI [TEK_Y897_Y897C]", "experimental endpoint": "phosphorylation enrichment", "obs value": 0.506}
{"seq string": "FLAVGYHKPHI [IDS_Y225]", "experimental endpoint": "phosphorylation enrichment", "obs value": 0.59}
{"seq string": "TVDASYYGGRG [ANTXR2_Y380]", "experimental endpoint": "phosphorylation enrichment", "obs value": 0.503}

Req: Fill in the recorded phosphorylation enrichment for this sequence, with EPHB2 (UniProt P29323) as test system: RGDTVYTVNCM [KBTBD13_Y404_R408C]
Resp: 0.636

Req: Please give the result for LFFFSYLLKNH [PTEN_Y180_V175L_YF] too.
Resp: 0.976

Req: Try the sequence KEINDYVEKGT [SERPINA1_Y184_Q180E]
Resp: 0.56

Req: // same read-out, input: GIPIQYPIISE [NOG_Y222_W217G]
Resp: 0.587

Req: Try this sequence too: VIKDKYPQARY [APTX_Y209_K211Q]
Resp: 0.394

Req: Please answer likewise for QLPRGYISILV [BAG3_Y205_P209L]
Resp: 0.848

Req: Record: KAIMTYVSSFY [ACTN4_Y260]
Resp: 0.666

Req: What do you get for YIILIYAMKKK [SLCO1B1_Y645] ?
Resp: 0.348

Req: Queued: GTATAYLCGVK [ALPL_Y117]
Resp: 0.507

Req: What about AGQEEYSAMRD [HRAS_Y64] ?
Resp: 0.547

Req: Another: VSYDEYRYRSF [CFTR_Y515_V520F]
Resp: 0.467

Req: Another sequence to look at: PKGWNYELPAT [PROM1_Y34_A31G]
Resp: 0.454

Req: Next entry: KNRDVYSSDYF [USP24_Y2134]
Resp: 4.03

Req: Try the sequence TFHNTYHSHMR [IL1RAPL1_Y615_Q618H]
Resp: 0.485

Req: Request: LKVDVYRRSHK [FUT3_Y222_G223R]
Resp: 0.496

Req: Follow-up entry: RSHLPYDVTPE [IQGAP3_Y1098]
Resp: 0.742

Req: What do we get for MSLDQYSPSFP [FGFR1_Y776_P772S] ?
Resp: 0.465

Req: Try KLLLKYSFHDV [RNF213_Y4141] next.
Resp: 0.598

Req: And the next one, KPLMPYMRFSR [SMARCE1_Y73_YF] ?
Resp: 0.464

* * *

- measured target: MERTK (UniProt Q12866)
- protocol text: phosphorylation enrichment, bacterial display (enrichment ratio); higher = better substrate or ligand; peptides without Tyr show the background
experimental endpoint: phosphorylation enrichment
Give only the figure.

Consider the following illustrative entries.
{"seq string": "GINDDYGQLKN [NBN_Y679]", "obs value": 0.296}
{"seq string": "RFMELYDLNRD [BBS2_Y648_YF]", "obs value": 0.459}
{"seq string": "YGMQLYQNYMH [GRB14_Y347]", "obs value": 3.75}

Next sequence, please.
Req: If you can, please state the reported phosphorylation enrichment value of AEMKRYSESSS [RAI14_Y869_A870S] .
Resp: 0.337

* * *

Known phosphorylation enrichment of a selection of sequences
- measured target: Jak2 (UniProt O60674)
- Sequence (O60674 whole entry, looked up): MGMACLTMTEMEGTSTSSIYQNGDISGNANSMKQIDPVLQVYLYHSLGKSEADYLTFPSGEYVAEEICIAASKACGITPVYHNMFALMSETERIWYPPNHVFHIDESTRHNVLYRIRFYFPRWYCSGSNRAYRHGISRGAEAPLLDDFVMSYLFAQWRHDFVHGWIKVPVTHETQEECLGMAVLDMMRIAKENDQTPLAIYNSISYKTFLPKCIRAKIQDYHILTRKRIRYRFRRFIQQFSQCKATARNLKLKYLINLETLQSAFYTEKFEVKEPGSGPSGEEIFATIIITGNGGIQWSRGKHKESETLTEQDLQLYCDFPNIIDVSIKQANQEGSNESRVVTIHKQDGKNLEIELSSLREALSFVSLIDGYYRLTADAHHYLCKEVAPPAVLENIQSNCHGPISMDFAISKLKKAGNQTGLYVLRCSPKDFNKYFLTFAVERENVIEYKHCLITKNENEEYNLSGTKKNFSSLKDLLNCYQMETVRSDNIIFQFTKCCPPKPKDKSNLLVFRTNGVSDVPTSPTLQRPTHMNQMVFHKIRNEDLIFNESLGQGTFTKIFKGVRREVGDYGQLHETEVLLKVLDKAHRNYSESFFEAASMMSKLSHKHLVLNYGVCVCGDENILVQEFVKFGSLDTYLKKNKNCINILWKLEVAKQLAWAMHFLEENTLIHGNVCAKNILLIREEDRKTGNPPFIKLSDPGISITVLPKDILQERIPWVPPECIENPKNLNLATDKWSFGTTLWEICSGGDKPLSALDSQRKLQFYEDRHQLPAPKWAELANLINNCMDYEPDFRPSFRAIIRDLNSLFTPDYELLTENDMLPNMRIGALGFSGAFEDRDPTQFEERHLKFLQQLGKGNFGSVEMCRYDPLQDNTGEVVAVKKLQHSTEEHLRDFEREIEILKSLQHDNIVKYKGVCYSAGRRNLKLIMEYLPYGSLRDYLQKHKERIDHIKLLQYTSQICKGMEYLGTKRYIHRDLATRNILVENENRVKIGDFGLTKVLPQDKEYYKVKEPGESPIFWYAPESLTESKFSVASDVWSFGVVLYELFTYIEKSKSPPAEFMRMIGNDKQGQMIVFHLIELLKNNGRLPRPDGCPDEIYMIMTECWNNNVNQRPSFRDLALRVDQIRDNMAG
- protocol text: phosphorylation enrichment, bacterial display (enrichment ratio); higher = better substrate or ligand; peptides without Tyr show the background
Please give only the number in your answer, with no unit.

{"seq string": "PPTFRYERGSR [INPPL1_Y663_YF]", "phosphorylation enrichment": 0.692}

Req: Record request: phosphorylation enrichment value, item GEDEPYAEPFA [APBA1_Y183_S184A_YF]
Resp: 1.47

Req: Try the sequence RQQQDYWLMDV [ANPEP_Y600_I603M]
Resp: 1.26

Req: Next: RNESFYDTFST [EFCAB3_Y372]
Resp: 0.891

Req: Another: EFNINYNNELP [THG1L_Y228]
Resp: 1.07

Req: Let us now turn to KDHLDYKFQPR [SOX9_Y172_P170L_YF]
Resp: 0.922

Req: Moving on to the next sequence: FMRGMYFRMTD [PLA2G6_Y541_K545T_YF]
Resp: 1.39

Req: Now consider KKDGPYDVVVL [PARK7_Y67_E64D] .
Resp: 0.608

Req: Another sequence: FASALYRQRRS [FGF11_Y162_YF]
Resp: 0.468

Req: Could you do the same for SGTYQYIIAKF [FOXL2_Y83_I80T] , please?
Resp: 1.29

Req: Field entry: VVHSSYDEIEG [SEC24A_Y263]
Resp: 0.892

Req: Subsequent entry: GHRPVYSEDEQ [CHST6_Y362_Y358H]
Resp: 0.894

Req: # repeat for RENGPYYTSYP [GDAP2_Y487]
Resp: 0.863

* * *

# maps each entry to its phosphorylation enrichment
- measured target: EPHB1 (UniProt P54762)
- Sequence (P54762 whole entry, looked up): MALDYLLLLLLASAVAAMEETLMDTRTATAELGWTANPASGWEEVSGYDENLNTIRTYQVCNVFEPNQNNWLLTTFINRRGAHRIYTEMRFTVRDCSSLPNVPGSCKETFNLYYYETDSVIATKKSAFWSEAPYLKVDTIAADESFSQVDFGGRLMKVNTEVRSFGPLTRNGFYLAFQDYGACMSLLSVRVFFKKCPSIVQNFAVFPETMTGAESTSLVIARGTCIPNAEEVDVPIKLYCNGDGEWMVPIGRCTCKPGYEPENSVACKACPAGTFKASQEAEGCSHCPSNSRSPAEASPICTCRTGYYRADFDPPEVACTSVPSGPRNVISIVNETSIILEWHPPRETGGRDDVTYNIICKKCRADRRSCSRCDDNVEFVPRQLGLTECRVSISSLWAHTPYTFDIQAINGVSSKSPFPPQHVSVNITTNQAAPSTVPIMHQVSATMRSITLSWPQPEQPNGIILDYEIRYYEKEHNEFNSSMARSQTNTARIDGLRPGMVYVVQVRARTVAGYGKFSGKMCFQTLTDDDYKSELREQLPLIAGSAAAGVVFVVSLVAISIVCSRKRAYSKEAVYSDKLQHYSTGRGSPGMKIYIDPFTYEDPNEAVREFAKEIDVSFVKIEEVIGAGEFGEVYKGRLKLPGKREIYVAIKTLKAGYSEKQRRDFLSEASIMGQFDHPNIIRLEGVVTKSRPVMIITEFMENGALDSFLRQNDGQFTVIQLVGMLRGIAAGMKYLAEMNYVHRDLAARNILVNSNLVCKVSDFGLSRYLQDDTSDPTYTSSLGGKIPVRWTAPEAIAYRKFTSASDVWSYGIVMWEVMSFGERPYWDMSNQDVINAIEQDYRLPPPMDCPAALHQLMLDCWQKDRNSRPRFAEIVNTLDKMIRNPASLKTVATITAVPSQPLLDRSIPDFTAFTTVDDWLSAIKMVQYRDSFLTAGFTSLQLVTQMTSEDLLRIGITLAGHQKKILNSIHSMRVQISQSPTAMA
- protocol text: phosphorylation enrichment, bacterial display (enrichment ratio); higher = better substrate or ligand; peptides without Tyr show the background
// response body must contain only the number

{"seq string": "LNPLIYTLKNA [OR4C46_Y285]", "phosphorylation enrichment": 0.762}
{"seq string": "ACLSLYGGFVE [MVD_Y164_R161L]", "phosphorylation enrichment": 1.21}
{"seq string": "DEDYLCREELA [POR_Y575_Y575C]", "phosphorylation enrichment": 0.842}
{"seq string": "PLDVEYFTLQI [TP53_Y327_G325V]", "phosphorylation enrichment": 0.804}

Shift focus to the following entry.
Req: What does the data say about its phosphorylation enrichment? Entry: DRTVHYVDEKG [IFT140_Y216_G212R]
Resp: 0.431

* * *

Entries and their phosphorylation enrichment values follow.
- measured target: FGFR1 (UniProt P11362)
- Sequence (P11362 whole entry, looked up): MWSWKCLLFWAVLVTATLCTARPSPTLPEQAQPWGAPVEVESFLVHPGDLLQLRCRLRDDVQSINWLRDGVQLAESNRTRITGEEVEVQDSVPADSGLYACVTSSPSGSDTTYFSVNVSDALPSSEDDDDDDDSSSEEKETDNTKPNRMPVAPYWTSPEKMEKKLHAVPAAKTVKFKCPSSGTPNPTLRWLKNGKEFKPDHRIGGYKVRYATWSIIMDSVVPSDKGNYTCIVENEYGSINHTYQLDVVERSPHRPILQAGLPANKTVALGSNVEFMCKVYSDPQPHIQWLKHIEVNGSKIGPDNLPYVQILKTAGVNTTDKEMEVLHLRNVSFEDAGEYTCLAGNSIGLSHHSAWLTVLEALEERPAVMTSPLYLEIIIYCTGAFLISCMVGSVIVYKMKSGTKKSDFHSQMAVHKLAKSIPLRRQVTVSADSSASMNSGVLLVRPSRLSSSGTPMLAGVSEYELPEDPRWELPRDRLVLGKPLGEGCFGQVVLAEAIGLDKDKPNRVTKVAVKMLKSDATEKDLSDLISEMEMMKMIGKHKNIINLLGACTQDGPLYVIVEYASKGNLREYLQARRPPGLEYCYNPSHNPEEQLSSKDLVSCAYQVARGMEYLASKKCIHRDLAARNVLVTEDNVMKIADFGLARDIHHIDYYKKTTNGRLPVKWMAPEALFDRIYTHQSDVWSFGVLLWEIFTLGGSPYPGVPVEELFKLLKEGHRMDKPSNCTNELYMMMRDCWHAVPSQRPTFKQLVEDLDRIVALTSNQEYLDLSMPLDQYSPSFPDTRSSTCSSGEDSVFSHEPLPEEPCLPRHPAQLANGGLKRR
- protocol text: phosphorylation enrichment, bacterial display (enrichment ratio); higher = better substrate or ligand; peptides without Tyr show the background
# respond with the number and nothing more

Guide cases for phosphorylation enrichment, answers given:
{"seq string": "ADARMYGVLPW [PLP1_Y207]", "phosphorylation enrichment": 0.511}
{"seq string": "FMRGMYFRMTD [PLA2G6_Y541_K545T_YF]", "phosphorylation enrichment": 0.496}

Read the next record carefully.
Req: Hello, I am looking for reported phosphorylation enrichment with FGFR1 (UniProt P11362) for SVVVPYQPPEV [TP53_Y220_E221Q] . Could you help?
Resp: 0.494

* * *

- measured target: SHP2-C SH2;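 also: peptide library displayed on the E. coli surface as eCPX fusions, selected cells deep-sequenced, score is each peptide's frequency after selection divided by its frequency in the input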
- protocol text: SH2 binding enrichment of the phosphorylated peptide, bacterial display (enrichment ratio); higher = better substrate or ligand; peptides without Tyr show the background
This section presents sequences with their documented SH2 binding enrichment values.
Keep the answer to the number alone.

{"seq string": "FADIAYNFRHG [PAH_Y166_YF]", "obs value": 0.78}
{"seq string": "RGDTVYTVNCM [KBTBD13_Y404_R408C]", "obs value": 0.793}
{"seq string": "LYNQDYPIHSV [GATM_Y227]", "obs value": 0.788}

Req: // query SH2 binding enrichment value for entry SRDDDYETIAM [NPY1R_Y347]
Resp: 0.789

* * *

- measured target: EPHB2 (UniProt P29323)
- protocol text: phosphorylation enrichment, bacterial display (enrichment ratio); higher = better substrate or ligand; peptides without Tyr show the background
Mark Condition met for reported phosphorylation enrichment of 0.7 or greater; mark Condition not met for anything smaller.

{"seq string": "LDFPEYNGVDR [CASQ1_Y43_D44N]", "group label": "Condition met"}
{"seq string": "KMLEKYKERLN [TLK2_Y259]", "group label": "Condition not met"}
{"seq string": "DLLNSYIENEG [HSPA4L_Y600]", "group label": "Condition not met"}
{"seq string": "KGPGEYVNIEF [IRS1_Y896_S892G]", "group label": "Condition not met"}

Could you now consider this next sequence?
Req: Say whether ARRHPYFYAPE [ALB_Y172] shows phosphorylation enrichment of 0.7 or more.
Resp: Condition not met

* * *

- measured target: Fes (UniProt P07332)
- Sequence (P07332 whole entry, looked up): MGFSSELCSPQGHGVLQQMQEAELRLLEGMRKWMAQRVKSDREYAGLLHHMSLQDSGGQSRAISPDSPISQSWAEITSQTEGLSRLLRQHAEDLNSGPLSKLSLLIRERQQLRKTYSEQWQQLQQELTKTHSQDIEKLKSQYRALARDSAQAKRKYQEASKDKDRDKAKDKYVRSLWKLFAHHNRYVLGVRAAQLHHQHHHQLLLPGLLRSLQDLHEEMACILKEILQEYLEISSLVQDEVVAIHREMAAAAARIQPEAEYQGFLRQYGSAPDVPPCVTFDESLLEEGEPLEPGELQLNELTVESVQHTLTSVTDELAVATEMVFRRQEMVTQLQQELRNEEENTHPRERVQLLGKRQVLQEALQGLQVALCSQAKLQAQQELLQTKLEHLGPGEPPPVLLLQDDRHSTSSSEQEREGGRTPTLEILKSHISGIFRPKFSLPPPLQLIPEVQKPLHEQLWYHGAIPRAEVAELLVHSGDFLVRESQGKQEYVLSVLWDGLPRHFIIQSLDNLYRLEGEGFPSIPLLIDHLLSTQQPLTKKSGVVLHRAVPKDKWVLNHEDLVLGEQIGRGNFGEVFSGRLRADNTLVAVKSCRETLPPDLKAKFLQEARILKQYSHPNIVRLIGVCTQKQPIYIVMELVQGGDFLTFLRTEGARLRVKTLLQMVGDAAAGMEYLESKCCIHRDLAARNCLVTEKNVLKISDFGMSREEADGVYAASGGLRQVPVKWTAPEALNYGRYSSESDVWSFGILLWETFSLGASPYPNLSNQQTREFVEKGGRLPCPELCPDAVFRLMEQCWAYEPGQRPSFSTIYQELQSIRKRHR
- protocol text: phosphorylation enrichment, bacterial display (enrichment ratio); higher = better substrate or ligand; peptides without Tyr show the background
experimental endpoint: phosphorylation enrichment
Please reply with the number alone, leaving off any unit.

# count of solved cases: 5
{"seq string": "ASELGYQFQAI [UROD_Y133_V134Q]", "measured target": "Fes (UniProt P07332)", "phosphorylation enrichment": 0.92}
{"seq string": "EKLIQYCQSKG [AKR1B1_Y199]", "measured target": "Fes (UniProt P07332)", "phosphorylation enrichment": 0.644}
{"seq string": "NFDRIYIFHLR [MYOF_Y1137_V1136I_YF]", "measured target": "Fes (UniProt P07332)", "phosphorylation enrichment": 1.42}
{"seq string": "ILKPDYQPLAI [HYDIN_Y1072]", "measured target": "Fes (UniProt P07332)", "phosphorylation enrichment": 0.65}
{"seq string": "RRIYSYRGHLW [VHL_Y112_H110Y]", "measured target": "Fes (UniProt P07332)", "phosphorylation enrichment": 1.68}

Req: Requested read-out: phosphorylation enrichment. Entry: ENELTYFCFKK [CD59_Y86_C89Y_YF]
Resp: 1.57

Req: Subsequent entry: LLKNMYLMLDN [STAT1_Y203_K201N]
Resp: 2.63
